# Measurement Description: CREB reporter modulators without forskolin, primary screen, cell-based, PC12, CRE-LacZ reporter, unstimulated (AID 1145)
# Settings: no forskolin, luminescence, 4.5 h, higher = more signal, called active from +8 up or from −8 down
Observable: z-score
One number for each entry.

// worked examples, z-score included
• Cc1ccc(S[C@]2(C(=O)NCc3ccccc3)CC(=O)N(C(C)C)[C@@H]2c2ccc(CO)cc2I)cc1 = 0.208
• [N-]=[N+]=NCc1ccccc1[C@H]1OC(c2ccc(OCCCO)cc2)=N[C@@]1(CCS(=O)(=O)c1ccccc1)C(N)=O = -0.678

# per-item lookup of z-score; items listed below
1. COc1cc(OC)c(C(O)C2C=CC3C(=O)N(c4ccccc4)C(=O)C3N2Nc2ccc(C#N)cc2)cc1Br (stereo not drawn)
2. COC(=O)[C@@]1(Cc2ccc(F)cc2)[C@H]2c3cc(C(=O)N4CCCC4)n(CCF)c3C[C@H]2CN1C(=O)c1ccccc1
3. CON(C)C(=O)C=C1C[C@@H](c2cccc(Cl)c2)O[C@@H](c2cccc(Cl)c2)O1
4. CC(C)N1C(=O)[C@@]2(c3ccc([N+](=O)[O-])cc3)CC(=O)N(C3CCCCC3)[C@@H]2c2ccc(CO)cc21
5. C[C@]12C(=O)N(CCCCCCO)[C@@H]3C(=O)N(c4ccc(Cl)cc4)CC=CC31O[C@@H]1/C=C\CCCOC(=O)C12 (stereo partly drawn)
6. O=C1OCC=C[C@H]2OC34C=CCN(c5ccc(Cl)cc5)C(=O)[C@H]3N(CCCCCO)C(=O)[C@@H]4[C@@H]12 (stereo partly drawn)

Response:
1. 2.17
2. 0.952
3. 0.481
4. -0.464
5. 0.0686
6. 0.183

###

# Measurement Description: E. coli DRC41 culture turbidity changes, primary screen, E. coli filamentation inducer project, strain DRC41, OD650, 48 h (AID 1152);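 also: E. coli MC1000 strain DRC41 lacking acrAB efflux pump and sulA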
# Settings: E. coli DRC41 (acrAB sulA), higher = more signal, called active from +8 up or from −8 down
Observable: z-score
Numbers only.

- CCOC(=O)C[C@H]1[C@H](OC(=O)c2ccc(C(=O)c3ccccc3)cc2)[C@@H](NC(=O)c2ccc3ccccc3c2)c2cc(OCCCO)ccc2N1C(=O)c1ccccc1: -0.558
- CC(C)N1CC=CC23O[C@@H]4C=CCCOC(=O)C4[C@H]2C(=O)N(CCO)[C@@H]3C1=O (some centres not stated): 2.1
- O=C1NCC(=O)N2[C@@H]1C[C@@H](C(=O)O)[C@H]2c1ccc(O)cc1: 0.533
- CC(C)C(CO)N1C(=O)[C@]2(C)C3C(=O)OCCC/C=C\[C@H]3OC23C=CCN(c2ccc(Cl)cc2)C(=O)[C@@H]13 (some centres not stated): -0.785

# per-item lookup of z-score; items listed below
1. O=C(O)[C@]1(Cc2ccccc2)N=C(c2ccc(OCCCO)cc2)O[C@@H]1c1ccccc1
2. C=CCNC(=O)[C@@H]1[C@H]2C(=O)O[C@H](c3ccccc3)[C@H](c3ccccc3)N2[C@H](c2ccccc2OCCO)[C@@]12C(=O)N(C(=O)OCCOC)c1ccc(C#CC3=CCCCC3)cc12
3. CN(C)CCCNC(=O)[C@@]1(c2ccc([N+](=O)[O-])cc2)CC(=O)N(CC23CC4CC(CC(C4)C2)C3)[C@@H]1c1ccc(CO)cc1

Response:
1: 0.585; 2: 0.889; 3: -3.6

###

# Assay Target: Torsin-1A (Homo sapiens)
# Measurement Description: small-molecule binders of mutant TOR1A in lysate, primary screen, cell lysate, small-molecule microarray, COS7 lysate, 635/667 nm fluorescence (AID 1150);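 also: score pools 667 nm emission and signal to noise measuring lysate protein binding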
# Settings: COS7 hTOR1A mutant lysate, 635 nm fluorescence, higher = more signal
Param threshold (0.6) applies to composite z-score; output Met when value >= threshold, Not met when value < threshold.

Sample answers from the record:
* C[C@]12C(=O)N(CCCCCCO)[C@@H]3C(=O)N(c4ccc(Cl)cc4)CC=CC31O[C@@H]1/C=C\CCCOC(=O)C12 (stereo partly specified) | Not met
* C=C(C(=O)CC[C@H](OC(=O)c1cccnc1)c1cccc(OCCO)c1)C(C)C | Not met
* NC(N)=NCc1cn(CCc2c[nH]c3ccccc23)nn1 | Met
* Cc1ccc(S[C@]2(C(=O)NC3CC3)CC(=O)N(Cc3ccccc3Cl)[C@@H]2c2ccc(CO)cc2I)cc1 | Met
* CN(C)CCCNC(=O)[C@@]1(c2ccc([N+](=O)[O-])cc2)CC(=O)N(CC23CC4CC(CC(C4)C2)C3)[C@@H]1c1ccc(CO)cc1 | Not met

Request: State whether the measured composite z-score reaches 0.6, counting equality as reaching it, for "COCCCNC(=O)[C@]1(CCC(=O)OC(C)(C)C)N=C(c2ccc(OCCCO)cc2)O[C@@H]1c1ccccc1"
Response: Met

Request: State whether the measured composite z-score reaches 0.6, counting equality as reaching it, for "COc1cc2c(cc1OC)CN(C(=O)[C@@H]1[C@H]3C(=O)O[C@H](c4ccccc4)[C@H](c4ccccc4)N3[C@H](c3ccccc3OCCO)[C@@]13C(=O)Nc1ccc(C#CC4(O)CCCCCC4)cc13)CC2"
Response: Met

Request: State whether the measured composite z-score reaches 0.6, counting equality as reaching it, for "COC(=O)[C@@]1(Cc2ccc(OC)cc2)[C@H]2c3cc(C(=O)N4CCCC4)n(CCc4cc5ccccc5[nH]4)c3C[C@H]2CN1C(=O)c1ccccc1"
Response: Met

Request: State whether the measured composite z-score reaches 0.6, counting equality as reaching it, for C[C@H]1C2=C3C(CC[C@H]4C(OCc5ccc(F)cc5C(F)(F)F)OC[C@](C)([C@@H]34)N(C(=O)OC(C)(C)C)C2)C(CO)C1CO (stereo partly specified)
Response: Not met

Request: State whether the measured composite z-score reaches 0.6, counting equality as reaching it, for CC(C)(C)N1CC=CC23O[C@@H]4C=CCOC(=O)[C@@H]4[C@H]2C(=O)N(CCCO)[C@@H]3C1=O (stereo partly specified)
Response: Not met

###

# System: wheat germ agglutinin (Triticum aestivum), Alexa647-labelled
# Measurement Description: wheat germ agglutinin binders on compound microarrays, profiling panel, artefact control for SMM control-protein annotation, biochemical, small-molecule microarray, 635/667 nm fluorescence (AID 1140);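 also: score merges 667 nm feature emission with signal to noise over triplicate slides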
# Settings: WGA-A647 binding, 635 nm fluorescence, higher = more signal
Observable: composite z-score
One number for each entry.

• C[N+](C)(C)CCCC[C@@H]1NC(=O)[C@@H]2C[C@H](C(=O)O)[C@H](c3ccc(O)cc3)N2C1=O = 0.213
• O=C(CS)NCCCCCCNC(=O)[C@@H]1C[C@@H]2C(=O)N3CCC[C@H]3C(=O)N2[C@@H]1c1cccc(OCCO)c1 = 0.832
• COc1ccc(C(O)C2C=CC3C(=O)N(C)C(=O)C3N2N2CCCCC2)cc1 (configuration not stated) = 1.29

# per-item lookup of composite z-score; items listed below
1. O=C(O)[C@]1(Cc2ccccc2)N=C(c2ccc(OCCCO)cc2)O[C@@H]1c1ccccc1
2. COc1ccc([Si](C)(C)[C@H]2[C@H](CCO)O[C@@]3(C(=O)N(Cc4cccc(N5CCCCC5=O)c4)c4ccccc43)[C@@H]2C)cc1
3. CC[C@@H]1[C@H]2C3C(=O)N(CC)C(=O)C3CC(=O)[C@H]2[C@H](c2ccc(C)cc2)N1S(=O)(=O)c1ccc(C)cc1 (some centres not stated)
4. C=CCOC(=O)[C@H]1[C@@H]2C(=O)O[C@@H](c3ccccc3)[C@@H](c3ccccc3)N2[C@@H](c2ccc(OCCOC(=O)[C@H]3C[C@H]4C(=O)N[C@@H](Cc5ccccc5)C(=O)N4[C@H]3c3ccc(O)cc3)cc2)[C@]12C(=O)Nc1ccc(I)cc12

Response:
[-0.218, 0.418, 0.676, 0.958]

###

Would you kindly list composite z-score for each of these molecules?
# Assay Target: Epidermal growth factor receptor (Homo sapiens) (UniProt P00533)
# Sequence (P00533 whole entry, looked up): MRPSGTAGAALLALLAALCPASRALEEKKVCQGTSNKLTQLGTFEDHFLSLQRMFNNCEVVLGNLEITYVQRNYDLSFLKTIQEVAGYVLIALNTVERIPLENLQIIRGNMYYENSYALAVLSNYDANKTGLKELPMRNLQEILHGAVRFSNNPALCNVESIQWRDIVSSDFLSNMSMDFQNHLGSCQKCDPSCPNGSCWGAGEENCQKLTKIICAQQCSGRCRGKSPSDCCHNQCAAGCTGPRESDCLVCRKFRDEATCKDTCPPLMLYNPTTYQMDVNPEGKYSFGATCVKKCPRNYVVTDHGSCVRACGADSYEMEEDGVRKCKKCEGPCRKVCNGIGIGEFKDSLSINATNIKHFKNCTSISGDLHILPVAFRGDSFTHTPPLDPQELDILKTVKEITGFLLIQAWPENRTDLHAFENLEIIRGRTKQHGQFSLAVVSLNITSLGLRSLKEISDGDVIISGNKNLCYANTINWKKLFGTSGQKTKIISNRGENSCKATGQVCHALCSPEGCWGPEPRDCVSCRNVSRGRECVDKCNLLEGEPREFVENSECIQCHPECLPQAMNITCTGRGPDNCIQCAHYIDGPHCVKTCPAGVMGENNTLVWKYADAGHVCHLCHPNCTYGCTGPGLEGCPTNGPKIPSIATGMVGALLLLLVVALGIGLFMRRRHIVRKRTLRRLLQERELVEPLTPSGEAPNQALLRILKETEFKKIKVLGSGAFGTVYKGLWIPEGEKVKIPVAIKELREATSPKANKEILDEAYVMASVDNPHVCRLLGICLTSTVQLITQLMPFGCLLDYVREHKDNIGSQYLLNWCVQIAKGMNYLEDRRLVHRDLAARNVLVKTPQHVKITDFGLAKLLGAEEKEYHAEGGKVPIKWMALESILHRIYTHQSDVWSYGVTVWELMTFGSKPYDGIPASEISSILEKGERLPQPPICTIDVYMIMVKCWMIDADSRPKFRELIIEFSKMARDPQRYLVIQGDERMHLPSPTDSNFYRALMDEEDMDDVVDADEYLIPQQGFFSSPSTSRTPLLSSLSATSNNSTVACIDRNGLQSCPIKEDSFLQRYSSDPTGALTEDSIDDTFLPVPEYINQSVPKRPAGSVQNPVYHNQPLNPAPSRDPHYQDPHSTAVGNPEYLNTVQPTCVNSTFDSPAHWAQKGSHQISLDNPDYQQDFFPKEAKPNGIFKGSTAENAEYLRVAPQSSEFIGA
# Measurement Description: EGFR binders on small-molecule microarrays, primary screen, biochemical, small-molecule microarray, 635 nm fluorescence (AID 1104);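 also: score merges 667 nm emission intensity with spot signal to noise over triplicate slides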
# Settings: EGFR binding, higher = more signal
Answers are plain numbers.

• CCOC(=O)C[C@H]1[C@H](OC(=O)c2ccc(C(=O)c3ccccc3)cc2)[C@@H](NC(=O)c2ccc3ccccc3c2)c2cc(OCCCO)ccc2N1C(=O)c1ccccc1 = 0.0993

# per-item lookup of composite z-score; items listed below
1. COc1ccc(NN2C(C(O)c3ccco3)C=CC3C(=O)N(C4CCCCC4)C(=O)C32)cc1 (configuration not stated)
2. COC(=O)[C@@]1(Cc2ccc(OC)cc2)[C@H]2c3cc(C(=O)N(C)C)n(Cc4ccccc4)c3C[C@H]2CN1C(=O)c1ccccc1
3. [N-]=[N+]=NCc1ccccc1C[C@@]1(C(N)=O)N=C(c2ccc(OCCCO)cc2)O[C@@H]1c1ccccc1CN=[N+]=[N-]
4. COc1ccc(NN2C(C(O)c3ccccn3)C=CC3C(=O)N(C4CCCCC4)C(=O)C32)cc1 (configuration not stated)
5. C=CCN1C(=O)[C@@]2(O[C@@H](CCO)[C@H]([Si](C)(C)c3ccc(OC)cc3)[C@H]2C)c2cc(N3C(=O)c4ccccc4Oc4ccccc43)ccc21
6. CCOC(=O)[C@@H]1[C@@H]2C(=O)N(CC)C(=O)[C@@H]2C[C@@H]1Sc1ccccc1

Response:
1: 0.423; 2: -0.342; 3: -0.238; 4: 0.224; 5: -0.262; 6: 0.169

# per-item lookup of composite z-score; items listed below
1. Cc1ccc(S[C@]2(C(=O)NC3CC3)CC(=O)N(Cc3ccccc3Cl)[C@@H]2c2ccc(CO)cc2I)cc1
2. CC(C)N1C(=O)[C@@]2(c3ccc([N+](=O)[O-])cc3)CC(=O)N(C3CCCCC3)[C@@H]2c2ccc(CO)cc21
3. O=C(NC1CC1)[C@@H]1c2ccccc2C(=O)N(Cc2ccccc2)[C@H]1c1ccc(CO)cc1

Response:
-0.172
-0.137
-0.375
